# Assay: Antiproliferative activity against human HLF1 cells assessed as cell growth inhibition measured after 72 hrs by MTT assay
# Format: functional, cell-based
# Assay Conditions: HLF1, 72 h
Assign IC50 to each entry below.
One number for each entry, in µM.

Field: example entries. Status: answers known.
c1ccc(-c2nc(CNc3nccc(N4CCCCC4)n3)cs2)cc1: 48.3
COc1cccc2c1C(=O)c1c(O)c3c(c(O)c1C2=O)C[C@@](O)(C(=O)CO)C[C@@H]3O[C@H]1C[C@H](N)[C@H](O)[C@H](C)O1: 0.23
CC(C)CNc1ccnc(NCc2csc(-c3ccccc3)c2)n1: 61.2
CC(C)CNc1ccnc(NCc2csc(-c3ccccc3)n2)n1: 89.4

Query molecule follows.
Query block: Note down IC50 recorded for CC(C)CNc1ccnc(NCc2csc(-c3ccc(Cl)cc3)n2)n1
Result block: 56.3

###

# Assay: Antiproliferative activity against human HLF1 cells assessed as cell growth inhibition measured after 72 hrs by MTT assay
# Assay type: functional, cell-based
# Assay Conditions: HLF1, 72 h
Metric: IC50 (µM)
Give bare numbers, in µM.

c1ccc(-c2nc(CNc3nccc(N4CCC4)n3)cs2)cc1: 91.1
CCCN(CCC)c1ccnc(NCc2csc(-c3ccccc3)n2)n1: 46.9
c1ccc(-c2nc(CNc3nccc(NC4CCCCC4)n3)cs2)cc1: 28.2
CCCCN(CCCC)c1ccnc(NCc2csc(-c3ccccc3)n2)n1: 35.4
c1ccc(-c2nc(CNc3nccc(N4CCCC4)n3)cs2)cc1: 61.8

I would be grateful if you could provide IC50 for each of the following entries.
1. OC1CC2CC1CN2c1ccnc(NCc2csc(-c3ccccc3)n2)n1 (stereo not drawn)
2. CC(C)CNc1ccnc(NCc2csc(-c3ccc(C(F)(F)F)cc3)n2)n1

Result block:
1. 23.1
2. 65.3

###

# Assay: Cytotoxicity against human U87 cells assessed as reduction in cell viability measured after 24 hrs by MTT assay
# Format: toxicity, cell-based, U-87MG ATCC
Metric: IC50 at 24 h (µM)
Give bare numbers, in µM.

Query block: Note down IC50 at 24 h recorded for OC1CC2CC1CN2c1ccnc(NCc2csc(-c3ccccc3)n2)n1 (stereo unspecified)
Result block: 27.5

###

Assign IC50 at 72 h to each entry below.
# Assay: Cytotoxicity against human U251 cells assessed as inhibition of cell growth measured after 72 hrs by MTT assay
# Type: toxicity, cell-based, U-251

Field: example entries. Status: answers known.
c1ccc(-c2nc(CNc3nccc(NC4CC4)n3)cs2)cc1: 59.5 µM
CC(C)CNc1ccnc(NCc2csc(-c3ccc(Cl)cc3)n2)n1: 18.5 µM

I would be grateful if you could provide IC50 at 72 h for each of the following entries.
1. OC1CC2CC1CN2c1ccnc(NCc2csc(-c3ccccc3)n2)n1 (stereo unspecified)
2. CC(C)CNc1cccc(NCc2csc(-c3ccccc3)n2)c1
3. CC(C)CNc1ccnc(NCc2csc(-c3ccc(C(F)(F)F)cc3)n2)n1
4. CCCN(CCC)c1ccnc(NCc2csc(-c3ccccc3)n2)n1

Result block:
1: 5.61 µM; 2: > 100 µM; 3: 29.8 µM; 4: 16.2 µM

###

# Assay: Stability in human plasma assessed as half life
# Format: ADME, cell-free
Metric: half-life (h)
Give bare numbers, in h.

Query block: Note down half-life recorded for OC1CC2CC1CN2c1ccnc(NCc2csc(-c3ccccc3)n2)n1 (stereo unspecified)
Result block: 4.2
